# targetSystem: full-length B-Catenin (Uniprot ID P35222) (human)
# Sequence (P35222 whole entry): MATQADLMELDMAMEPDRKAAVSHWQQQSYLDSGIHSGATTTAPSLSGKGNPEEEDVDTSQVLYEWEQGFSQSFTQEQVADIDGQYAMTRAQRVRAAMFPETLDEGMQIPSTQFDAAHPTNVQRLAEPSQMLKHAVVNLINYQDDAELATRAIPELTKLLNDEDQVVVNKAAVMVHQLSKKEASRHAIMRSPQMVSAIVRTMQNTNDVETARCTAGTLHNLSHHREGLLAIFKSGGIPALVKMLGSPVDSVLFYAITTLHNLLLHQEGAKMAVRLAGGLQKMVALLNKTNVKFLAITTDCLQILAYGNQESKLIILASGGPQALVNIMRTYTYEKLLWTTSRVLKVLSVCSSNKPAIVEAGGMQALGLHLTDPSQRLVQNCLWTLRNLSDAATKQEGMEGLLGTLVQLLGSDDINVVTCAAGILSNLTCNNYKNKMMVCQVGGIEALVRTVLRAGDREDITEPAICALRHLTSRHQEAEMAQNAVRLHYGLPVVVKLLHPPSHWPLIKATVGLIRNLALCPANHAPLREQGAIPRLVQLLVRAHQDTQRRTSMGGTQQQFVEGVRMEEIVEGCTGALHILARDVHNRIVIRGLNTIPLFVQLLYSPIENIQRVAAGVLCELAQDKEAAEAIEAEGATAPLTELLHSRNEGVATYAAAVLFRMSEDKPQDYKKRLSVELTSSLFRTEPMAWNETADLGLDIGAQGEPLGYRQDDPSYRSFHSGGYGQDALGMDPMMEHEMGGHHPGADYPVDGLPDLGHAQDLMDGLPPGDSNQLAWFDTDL
# procedureSummary: competition fluorescence polarization, displacement of 5FAM-TCF4
measuredMetric: IC50

Ac-PL3-Asp-Npg-B5-Asp-dGlu-Aib-Ala-Phe-Lys*3-PyrS2-2F3MeF-BztA-GlnR*3-Ala-NH2 (peptide) | < 50 nM

Request body: readout IC50, system full-length B-Catenin (Uniprot ID P35222) (human), query Ac-PL3-Asp-Npg-B5-Asp-5F3Me3COOHF-Aib-Ala-Phe-Lys*3-PyrS2-2F3MeF-BztA-GlnR*3-Ala-NH2 (peptide) . Return the value.
< 50 nM

###

# targetSystem: beta-catenin fused to HaloTag (Bcat-Halo NanoBRET construct), expressed in HEK293 cells
# procedureSummary: NanoBRET Abs IC50 in HEK293 cells, beta-catenin-HaloTag against TCF4-NanoLuc
pIC50: −log10 of the molar value.
measuredMetric: pIC50

Some substances with recorded pIC50:
Ac-PL3-Asp-Npg-B5-Asp-2COOHF-Aib-Ala-Phe-Lys*3-PyrS2-2F3MeF-BztA-GlnR*3-Ala-NH2 (peptide) | > 5.52
Ac-PL3-Asp-Npg-B5-Asp-Ala-Aib-Ala-Phe-Lys*3-PyrS2-2F3MeF-BztA-GlnR*3-Ala-NH2 (peptide) | < 5.52
Ac-PL3-Asp-Npg-B5-Asp-5F3Me2COOHF-Aib-Ala-Phe-Lys*3-PyrS2-2F3MeF-BztA-GlnR*3-Ala-NH2 (peptide) | < 5.52

Next item in the queue.
Quick check: pIC50 of Ac-PL3-Asp-Npg-B5-Asp-4F3Me3COOHF-Aib-Ala-Phe-Lys*3-PyrS2-2F3MeF-BztA-GlnR*3-Ala-NH2 (peptide) ?
> 5.52

###

# targetSystem: full-length beta-catenin (Uniprot ID P35222) (human)
# procedureSummary: competition fluorescence polarization
pIC50: −log10 of the molar value.
measuredMetric: pIC50

Some substances with recorded pIC50:
I-567: Ac-PL3-Asp-Npg-B5-Asp-3COOHF-Aib-Ala-Phe-[3_3-biph]Cys-PyrS2-3Thi-BztA-Cys-Ala-NH2 (peptide) | 6.92
I-377: Ac-PL3-Asp-Npg-B5-Asp-3COOHF-Aib-Ala-Phe-[pXyl]Cys-PyrS2-2F3MeF-BztA-Cys-Ala-NH2 (peptide) | 7.03

(a) I-566: Ac-PL3-Asp-Npg-B5-Asp-3COOHF-Aib-Ala-Phe-[2_6-naph]Cys-PyrS2-3Thi-BztA-Cys-Ala-NH2 (peptide)
(b) I-376: Ac-PL3-Asp-Npg-B5-Asp-3COOHF-Aib-Ala-Phe-[oXyl]Cys-PyrS2-2F3MeF-BztA-Cys-Ala-NH2 (peptide)
Between these two entries, a and b , state which has the higher pIC50. Pick one and reply with its label.
a

Sourced from patent US20240360179A1
